Taken from PubChem BioAssay (NCI).

# System: 786-0 renal
# test.protocol: NCI tumour cell line growth inhibition, 48 h
Listed below: GI50 values for each entry.

• O=C1Nc2c(ccc(Cl)c2Cl)/C1=C\c1cc(C(F)(F)F)cc(C(F)(F)F)c1 = 4.29 µM
• CCN(CC)CCNC(=O)C(Cl)=C1C(Cl)=C(Cl)C(Cl)=C1Cl = 5.07 µM
• NCCCCCCCCCn1c2c(c3ccccc3c1=O)C(=O)c1ccccc1-2 = 7.72 µM
• O=C(Nc1ccc(Cl)cc1)c1cc2ccccc2cc1OP(=O)(O)O = 3.59 µM
• CCOC(=O)Nc1cc(-c2ccc(C)c(NS(C)(=O)=O)c2)nn2c(C)nnc12 = 2.64 µM

query: What does the record list as GI50 for CNC(=O)c1cc(Oc2ccc3nc(NC(=O)Nc4cc(C(F)(F)F)cc(C(F)(F)F)c4)sc3c2)ccn1 ?
result: 1.42 µM

* * *

This listing pairs compounds with measured TGI.
# System: OVCAR-3 ovarian
# test.protocol: NCI tumour cell line growth inhibition, 48 h

Before answering, review these 5 worked examples.
• Nc1nc(N)c2nc(CNc3ccc(C(=O)NC(CCNC(=O)c4ccccc4C(=O)O)C(=O)O)cc3)cnc2n1 (stereo not drawn) = > 100 µM
• COc1cc2oc(-c3ccc(O)cc3)cc(=O)c2c(OC)c1O = > 100 µM
• O=C(c1ccccc1)c1c2n(c3c1cc(O)c1ccccc13)CCN2 = 7.82 µM
• Cc1sc2nc3n(c(=O)c2c1C)N=C(c1ccccc1)CS3 = > 100 µM
• COc1ccc(NC(=O)C2=CC(=O)c3ccc(O)cc3C2=O)c(OC)c1 = > 100 µM

query: Requested field: TGI. Item: ClCc1ccc(-c2ccc(Cn3cnc4c(Cl)ncnc43)cc2)cc1
result: 3.8 µM

query: Return reported TGI; argument: O=C(O)C1C2CCC(O2)C1C(=O)NCc1cccnc1 (stereo not drawn)
result: > 100 µM

query: Bench note: what TGI did Cc1cc(N(CCC#N)CCC#N)ccc1CC1N=C(c2ccccc2)OC1=O (stereo not drawn) show?
result: > 100 µM

query: For the compound CCCCCCn1c2c(c3c(O)cccc31)C(=O)c1ccccc1-2 , what TGI is on record?
result: 43 µM

query: Given CC(O)c1ccc(C(O)/C(=N\NC(=O)c2ccncc2)c2nc3ccc([N+](=O)[O-])cc3[nH]c2=O)cc1 (stereo not drawn) , state its recorded TGI.
result: > 100 µM

query: Query: TGI; subject: O=C(NCCCc1cn[nH]c(=O)n1)c1cccc2nc3ccccc3nc12
result: > 100 µM

query: Any idea what TGI was measured for Clc1ccc(Nc2ncnc3c2sc2ncccc23)c(Cl)c1 ?
result: > 100 µM

query: Query: TGI; subject: O=Cc1cn(S(=O)(=O)c2ccccc2)c2ccccc12
result: > 100 µM

query: Could you share which TGI value was measured for CN(C)CCOc1ccc2[nH]c(C(=O)N3CC(CCl)c4ccc(N)cc43)cc2c1 (stereo not drawn) ?
result: 0.653 µM

query: // query TGI value for entry COc1cc(O)c2c(=O)c(OC)c(-c3ccc(OC)c(OC)c3)oc2c1.[Sn]
result: > 100 µM

query: Can you share its TGI? I mean this compound: COC(=O)CN(CC1O[C@@H]2OC(C)(C)O[C@@H]2C1NC(C)=O)C(=O)OCc1ccccc1 (stereo partly drawn)
result: > 100 µM

query: Bench note: what TGI did O=C1c2c(F)c(F)c(F)c(F)c2SC2=Nc3cccc4cccc(c34)N12 show?
result: 7.58 µM

query: Quick one: TGI of CC(C)=Cc1cc(C(=O)NCCNC(=O)c2cc(C=C(C)C)nc(NC#N)n2)nc(NC#N)n1 ?
result: > 100 µM

query: What TGI value was documented for this compound, N/C(=N\C(N)=N\c1nc2ccccc2s1)c1ccnc(Br)c1 ?
result: 18.9 µM

query: Recorded TGI for CSc1nc(SC)c2c(C)cn(C3OC(C)C(O)C(O)C3O)c2n1 (stereo not drawn) , please?
result: > 100 µM

query: Consider the compound CN1c2ccccc2S(=O)(=O)n2c(COc3ccccc3)nnc21 and give its measured TGI.
result: > 100 µM
